tested on: Pseudomonas aeruginosa; assay: Antibiofilm activity against Pseudomonas aeruginosa ATCC 15442 after 24 hrs by crystal violet staining based assay; type: functional, organism-based; details: ATCC 15442, 24 h
quantity measured: IC50

# compound structure string, study system, measured
data = [
    ("O=C(c1cc(Br)ccc1O)c1[nH]c(Br)c(Cl)c1Br", "Pseudomonas aeruginosa", "78.9 µM"),
    ("O=C(c1cc(Cl)cc(Cl)c1O)c1[nH]c(Cl)c(Br)c1Cl", "Pseudomonas aeruginosa", "18.6 µM"),
    ("O=C(c1cc(Cl)c(Cl)[nH]1)c1cc(Cl)cc(Cl)c1O", "Pseudomonas aeruginosa", "236 µM"),
    ("O=C(c1cc(Br)cc(Br)c1O)c1[nH]c(Br)c(Br)c1Br", "Pseudomonas aeruginosa", "74.8 µM"),
    ("O=C(c1cc(Cl)cc(Cl)c1O)c1[nH]c(Cl)c(Cl)c1Br", "Pseudomonas aeruginosa", "170 µM"),
    ("O=C(c1cc(Cl)cc(Cl)c1O)c1[nH]c(Br)c(Br)c1Br", "Pseudomonas aeruginosa", "106 µM"),
]

---

As a worked illustration, we turn to pIC50 data collected for Sortase A (Staphylococcus aureus, UniProt Q9S446).
pIC50: −log10 of the molar value.
quantity measured: pIC50

# compound structure string, study system, quantity measured, measured
records = [
    ("O=C(c1cc(Cl)cc(Cl)c1O)c1[nH]c(Cl)c(Cl)c1Br", "Sortase A (Staphylococcus aureus, UniProt Q9S446)", "pIC50", 3.89),
    ("O=C(c1cc(Br)ccc1O)c1[nH]c(Br)c(Cl)c1Br", "Sortase A (Staphylococcus aureus, UniProt Q9S446)", "pIC50", 3.60),
    ("O=C(c1cc(Br)cc(Br)c1O)c1[nH]c(Br)c(Br)c1Br", "Sortase A (Staphylococcus aureus, UniProt Q9S446)", "pIC50", 3.85),
    ("O=C(c1cc(Cl)cc(Cl)c1O)c1[nH]c(Cl)c(Br)c1Cl", "Sortase A (Staphylococcus aureus, UniProt Q9S446)", "pIC50", 3.80),
    ("O=C(c1cc(Cl)c(Cl)[nH]1)c1cc(Cl)cc(Cl)c1O", "Sortase A (Staphylococcus aureus, UniProt Q9S446)", "pIC50", 3.52),
    ("O=C(c1cc(Cl)cc(Cl)c1O)c1[nH]c(Br)c(Br)c1Br", "Sortase A (Staphylococcus aureus, UniProt Q9S446)", "pIC50", 3.89),
]
